Molecular target: ShhN protein (Homo sapiens, UniProt Q15465)
Construct: auto-cleavage of full length Shh into an active 20 kD N-terminal fragment (ShhN); purchased R&D Systems
Sequence (Q15465 24-197 limits assumed, species assumed): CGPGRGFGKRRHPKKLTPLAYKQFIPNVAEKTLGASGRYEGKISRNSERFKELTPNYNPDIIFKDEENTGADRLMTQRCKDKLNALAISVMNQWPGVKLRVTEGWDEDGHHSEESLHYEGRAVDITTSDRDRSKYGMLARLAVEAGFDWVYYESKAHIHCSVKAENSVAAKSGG
Test: Surface Plasmon Resonance (SPR) protein binding assay on immobilized ShhN
Conditions: SPR, Biacore T100, ShhN immobilized on CM4 chip, 25° C., compound 0.78 μM-25 μM; read-out: KD
pKd: −log10 of the molar value.
# pKd per record follows

Reference set, count: 5
O=C(C[C@@H]1C/C=C/C[C@H](Cc2ccccc2)C(=O)N[C@H](c2ccccc2)COC1=O)NCc1ccc(Cl)cc1 = < 4.00
O=C1CC/C=C/C[C@@H](CC(=O)N2CCCCC2)C(=O)NC[C@@H](c2ccccc2)O1 = 6.00 to 7.00
COc1ccccc1[C@@H]1COC(=O)[C@H](CC(=O)OC(C)(C)C)C/C=C/CCC(=O)N1 = > 7.00
CN(Cc1ccc(Cl)cc1)C(=O)C[C@@H]1C/C=C/CCC(=O)O[C@H](c2ccccc2)CN(C)C1=O = < 4.00
C[C@H]1C/C=C/C[C@@H](CC(=O)NCc2ccc(Cl)cc2)C(=O)OC[C@@H](c2ccccc2)NC1=O = 6.00 to 7.00

Next compound, pKd to be filled in.
Data request: Item N[C@H]1C/C=C/C[C@@H](CC(=O)NCc2ccc(Cl)cc2)C(=O)NC[C@@H](c2ccccc2)OC1=O : provide pKd
Data returned: 4.00 to 6.00
